Data credit: ChEMBL document CHEMBL4004889

molecular target: Eukaryotic initiation factor 4A-III (Homo sapiens, UniProt P38919); assay: Binding affinity to full length recombinant human N-terminal His6/SUMO-tagged eIF4A3 expressed in Escherichia coli BL21(DE3) by isothermal titration calorimetric method
Sequence (P38919 whole entry): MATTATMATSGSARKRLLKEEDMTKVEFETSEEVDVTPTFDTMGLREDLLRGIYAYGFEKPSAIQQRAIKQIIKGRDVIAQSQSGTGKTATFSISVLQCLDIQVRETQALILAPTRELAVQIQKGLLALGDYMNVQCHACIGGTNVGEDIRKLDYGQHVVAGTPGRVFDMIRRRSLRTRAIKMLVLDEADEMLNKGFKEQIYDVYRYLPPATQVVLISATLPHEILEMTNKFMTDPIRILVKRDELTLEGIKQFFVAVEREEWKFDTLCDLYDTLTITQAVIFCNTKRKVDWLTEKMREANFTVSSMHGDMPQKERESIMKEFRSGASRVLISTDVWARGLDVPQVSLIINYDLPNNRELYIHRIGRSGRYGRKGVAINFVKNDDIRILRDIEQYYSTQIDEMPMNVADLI

>  <COMPOUND_STRING>
CC(C)c1cc(Cl)c2cc(C(=O)O)[nH]c2c1F

>  <Kd (nM)>
62

$$$$

----------
target: UniProt:P38919; experiment: Inhibition of MLN51-induced full length recombinant human N-terminal His6/SUMO-tagged eIF4A3 RNA dependent ATPase activity expressed in Escherichia coli BL21(DE3) using 60 ug/ml single stranded poly(U) RNA as substrate after 30 mins by ADP-Glo luminescence assay
pIC50: −log10 of the molar value.
pIC50 for assorted compounds
READOUT_NAME: pIC50

>  <COMPOUND_STRING>
Cc1ccc2cc(C(=O)O)[nH]c2c1

>  <READOUT_NAME>
pIC50

>  <RESULT_VALUE>
< 4.00

$$$$
>  <COMPOUND_STRING>
CC(C)c1ccc2cc(C(=O)O)[nH]c2c1

>  <READOUT_NAME>
pIC50

>  <RESULT_VALUE>
4.57

$$$$
>  <COMPOUND_STRING>
CC(C)c1ccc2cc(C(=O)O)n(C)c2c1

>  <READOUT_NAME>
pIC50

>  <RESULT_VALUE>
< 4.00

$$$$
>  <COMPOUND_STRING>
COC(=O)c1cc2ccc(C(C)C)cc2[nH]1

>  <READOUT_NAME>
pIC50

>  <RESULT_VALUE>
< 4.00

$$$$
>  <COMPOUND_STRING>
CC(C)c1cc(Cl)c2cc(C(=O)O)[nH]c2c1F

>  <READOUT_NAME>
pIC50

>  <RESULT_VALUE>
6.01

$$$$
>  <COMPOUND_STRING>
CC(C)c1ccc2cc(-c3nnn[nH]3)[nH]c2c1

>  <READOUT_NAME>
pIC50

>  <RESULT_VALUE>
4.52

$$$$
>  <COMPOUND_STRING>
O=C(O)c1cc2ccc(Cl)cc2[nH]1

>  <READOUT_NAME>
pIC50

>  <RESULT_VALUE>
< 4.00

$$$$
>  <COMPOUND_STRING>
CC(C)c1cccc2cc(C(=O)O)[nH]c12

>  <READOUT_NAME>
pIC50

>  <RESULT_VALUE>
< 4.00

$$$$
>  <COMPOUND_STRING>
CC(C)c1ccc2cc(C(=O)O)[nH]c2c1Cl

>  <READOUT_NAME>
pIC50

>  <RESULT_VALUE>
< 4.00

$$$$
>  <COMPOUND_STRING>
CC(C)c1ccc2cc(C(N)=O)[nH]c2c1

>  <READOUT_NAME>
pIC50

>  <RESULT_VALUE>
< 4.00

$$$$
>  <COMPOUND_STRING>
CC(C)c1ccc2c(F)c(C(=O)O)[nH]c2c1

>  <READOUT_NAME>
pIC50

>  <RESULT_VALUE>
4.70

$$$$
>  <COMPOUND_STRING>
CC(C)c1ccc2cc(C(=O)O)[nH]c2c1F

>  <READOUT_NAME>
pIC50

>  <RESULT_VALUE>
5.16

$$$$
>  <COMPOUND_STRING>
CC(C)c1ccc2[nH]c(C(=O)O)cc2c1

>  <READOUT_NAME>
pIC50

>  <RESULT_VALUE>
< 4.00

$$$$

----------
target: U5 small nuclear ribonucleoprotein 200 kDa helicase (Homo sapiens); experiment: Inhibition of full length recombinant human N-terminal His-tagged BRR2 RNA dependent ATPase activity expressed in baculovirus infected Sf9 insect cells using single stranded poly(U) RNA as substrate after 30 mins by ADP-Glo luminescence assay
Sequence (O75643 whole entry): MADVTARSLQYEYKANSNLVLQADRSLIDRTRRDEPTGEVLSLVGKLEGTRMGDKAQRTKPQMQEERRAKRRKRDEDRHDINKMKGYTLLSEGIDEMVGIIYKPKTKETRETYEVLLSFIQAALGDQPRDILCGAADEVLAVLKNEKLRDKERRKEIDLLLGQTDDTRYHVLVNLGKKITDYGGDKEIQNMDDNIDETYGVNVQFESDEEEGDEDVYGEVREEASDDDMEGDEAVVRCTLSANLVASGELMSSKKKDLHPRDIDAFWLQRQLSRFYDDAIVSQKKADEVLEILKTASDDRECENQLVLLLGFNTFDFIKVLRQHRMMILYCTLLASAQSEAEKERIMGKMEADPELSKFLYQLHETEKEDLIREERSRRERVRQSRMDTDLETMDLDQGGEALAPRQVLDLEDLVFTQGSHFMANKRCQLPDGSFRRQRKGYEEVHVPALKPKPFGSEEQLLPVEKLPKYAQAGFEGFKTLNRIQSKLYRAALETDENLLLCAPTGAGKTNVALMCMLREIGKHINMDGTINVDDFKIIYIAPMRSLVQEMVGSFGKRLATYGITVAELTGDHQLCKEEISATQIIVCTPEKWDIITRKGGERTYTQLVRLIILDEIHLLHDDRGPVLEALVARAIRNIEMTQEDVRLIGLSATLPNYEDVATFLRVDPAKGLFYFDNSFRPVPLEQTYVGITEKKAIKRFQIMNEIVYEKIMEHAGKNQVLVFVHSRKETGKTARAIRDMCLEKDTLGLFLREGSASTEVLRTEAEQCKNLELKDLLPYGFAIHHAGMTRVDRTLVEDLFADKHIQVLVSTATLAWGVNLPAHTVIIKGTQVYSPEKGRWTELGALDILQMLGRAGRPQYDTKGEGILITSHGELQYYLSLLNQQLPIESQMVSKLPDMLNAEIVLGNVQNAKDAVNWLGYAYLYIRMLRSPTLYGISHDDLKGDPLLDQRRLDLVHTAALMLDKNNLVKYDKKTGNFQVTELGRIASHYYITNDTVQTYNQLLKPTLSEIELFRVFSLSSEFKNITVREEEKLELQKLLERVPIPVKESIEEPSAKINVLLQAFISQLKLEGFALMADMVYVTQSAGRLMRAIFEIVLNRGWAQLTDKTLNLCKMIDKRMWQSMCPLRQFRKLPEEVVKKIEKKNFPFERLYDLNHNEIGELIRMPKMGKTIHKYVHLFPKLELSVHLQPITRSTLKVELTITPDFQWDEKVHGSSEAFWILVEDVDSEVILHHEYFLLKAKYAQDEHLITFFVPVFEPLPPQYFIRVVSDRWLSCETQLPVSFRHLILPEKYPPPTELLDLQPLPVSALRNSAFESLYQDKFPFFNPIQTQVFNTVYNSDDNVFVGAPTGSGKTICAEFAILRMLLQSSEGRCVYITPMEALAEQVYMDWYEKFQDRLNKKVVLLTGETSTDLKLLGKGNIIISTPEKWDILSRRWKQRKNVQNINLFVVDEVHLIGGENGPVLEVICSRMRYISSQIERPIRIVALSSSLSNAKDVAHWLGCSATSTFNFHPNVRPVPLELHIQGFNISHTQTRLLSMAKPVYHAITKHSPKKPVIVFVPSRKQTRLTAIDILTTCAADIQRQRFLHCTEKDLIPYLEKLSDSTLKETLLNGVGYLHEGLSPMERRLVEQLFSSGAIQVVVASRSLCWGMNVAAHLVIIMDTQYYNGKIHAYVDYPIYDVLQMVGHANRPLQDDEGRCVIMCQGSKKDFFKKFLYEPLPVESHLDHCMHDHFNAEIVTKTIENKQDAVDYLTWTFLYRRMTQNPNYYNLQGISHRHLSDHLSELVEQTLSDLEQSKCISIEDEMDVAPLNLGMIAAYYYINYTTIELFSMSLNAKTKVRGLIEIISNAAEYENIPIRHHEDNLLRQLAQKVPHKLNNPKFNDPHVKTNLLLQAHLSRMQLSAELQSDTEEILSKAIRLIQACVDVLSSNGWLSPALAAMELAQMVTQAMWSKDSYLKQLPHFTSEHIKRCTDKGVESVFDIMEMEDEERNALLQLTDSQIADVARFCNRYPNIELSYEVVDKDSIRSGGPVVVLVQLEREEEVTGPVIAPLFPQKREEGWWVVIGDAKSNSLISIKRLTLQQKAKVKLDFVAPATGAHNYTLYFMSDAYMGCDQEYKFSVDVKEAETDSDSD
READOUT_NAME: IC50

>  <COMPOUND>
CC(C)c1cc(Cl)c2cc(C(=O)O)[nH]c2c1F

>  <READOUT_NAME>
IC50

>  <RESULT_VALUE>
> 100 µM

$$$$
>  <COMPOUND>
C[C@H]1C[C@@]2(O[C@H]3C[C@H]4[C@@H]5CC[C@H]6C[C@H](O)CC[C@]6(C)[C@H]5[C@@H](O)C[C@]4(C)[C@H]3[C@@]2(C)O)OC1(C)C [HIPPURISTANOL]

>  <READOUT_NAME>
IC50

>  <RESULT_VALUE>
> 30 µM

$$$$

----------
target: Eukaryotic initiation factor 4A-II (Homo sapiens); test: Inhibition of eIF4G-induced eIF4A2 (unknown origin) RNA dependent ATPase activity expressed in Escherichia coli BL21(DE3) using single stranded poly(U) RNA as substrate after 40 mins by ADP-Glo luminescence assay
Sequence (Q14240 whole entry): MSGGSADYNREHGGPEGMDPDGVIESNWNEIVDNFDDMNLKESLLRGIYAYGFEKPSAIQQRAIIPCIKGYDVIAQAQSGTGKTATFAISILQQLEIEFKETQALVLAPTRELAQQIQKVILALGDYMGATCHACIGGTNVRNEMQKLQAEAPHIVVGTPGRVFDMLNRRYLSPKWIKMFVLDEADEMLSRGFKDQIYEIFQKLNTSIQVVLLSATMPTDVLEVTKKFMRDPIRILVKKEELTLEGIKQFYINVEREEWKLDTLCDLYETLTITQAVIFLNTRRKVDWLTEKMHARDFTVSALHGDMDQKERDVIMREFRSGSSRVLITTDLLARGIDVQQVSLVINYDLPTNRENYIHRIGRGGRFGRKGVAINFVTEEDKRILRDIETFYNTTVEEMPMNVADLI
IC50 for assorted compounds

>  <COMPOUND>
C[C@H]1C[C@@]2(O[C@H]3C[C@H]4[C@@H]5CC[C@H]6C[C@H](O)CC[C@]6(C)[C@H]5[C@@H](O)C[C@]4(C)[C@H]3[C@@]2(C)O)OC1(C)C [HIPPURISTANOL]

>  <STUDY_SYSTEM>
Eukaryotic initiation factor 4A-II (Homo sapiens)

>  <IC50>
18 µM

$$$$
>  <COMPOUND>
CC(C)c1cc(Cl)c2cc(C(=O)O)[nH]c2c1F

>  <STUDY_SYSTEM>
Eukaryotic initiation factor 4A-II (Homo sapiens)

>  <IC50>
> 100 µM

$$$$

----------
IC50 for assorted compounds
biological target: UniProtKB P60842; assay: Inhibition of eIF4G-induced full length recombinant human N-terminal His6/SUMO-tagged eIF4A1 RNA dependent ATPase activity expressed in Escherichia coli BL21(DE3) using single stranded poly(U) RNA as substrate after 40 mins by ADP-Glo luminescence assay
Sequence (P60842 whole entry): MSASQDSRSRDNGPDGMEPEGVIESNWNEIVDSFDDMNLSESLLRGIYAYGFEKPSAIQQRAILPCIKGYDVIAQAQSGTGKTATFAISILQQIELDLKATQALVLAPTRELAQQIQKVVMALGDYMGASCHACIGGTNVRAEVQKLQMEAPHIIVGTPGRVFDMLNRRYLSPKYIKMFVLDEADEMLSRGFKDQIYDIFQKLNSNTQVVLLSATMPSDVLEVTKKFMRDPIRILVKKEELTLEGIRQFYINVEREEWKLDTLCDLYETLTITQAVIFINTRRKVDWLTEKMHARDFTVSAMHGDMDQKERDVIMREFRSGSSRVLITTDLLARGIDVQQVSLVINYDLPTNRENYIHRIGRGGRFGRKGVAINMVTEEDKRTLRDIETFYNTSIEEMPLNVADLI
READOUT_NAME: IC50

>  <COMPOUND>
C[C@H]1C[C@@]2(O[C@H]3C[C@H]4[C@@H]5CC[C@H]6C[C@H](O)CC[C@]6(C)[C@H]5[C@@H](O)C[C@]4(C)[C@H]3[C@@]2(C)O)OC1(C)C [HIPPURISTANOL]

>  <RESULT_VALUE>
3.1 µM

$$$$
>  <COMPOUND>
CC(C)c1cc(Cl)c2cc(C(=O)O)[nH]c2c1F

>  <RESULT_VALUE>
> 100 µM

$$$$
>  <COMPOUND>
CC(C)c1cc(Cl)c2cc(C(=O)O)[nH]c2c1

>  <RESULT_VALUE>
> 100 µM

$$$$
>  <COMPOUND>
CC(C)c1ccc2cc(C(=O)O)[nH]c2c1F

>  <RESULT_VALUE>
> 100 µM

$$$$

----------
pIC50 for assorted molecules
target: Eukaryotic initiation factor 4A-III (Homo sapiens); test: Inhibition of MLN51-induced full length recombinant human N-terminal His6/SUMO-tagged eIF4A3 RNA dependent ATPase activity expressed in Escherichia coli BL21(DE3) using 60 ug/ml single stranded poly(U) RNA as substrate after 30 mins by ADP-Glo luminescence assay
pIC50: −log10 of the molar value.
READOUT_NAME: pIC50

>  <COMPOUND_STRING>
CCc1ccc2cc(C(=O)O)[nH]c2c1

>  <QUAL>
<

>  <RESULT_VALUE>
4.00

$$$$
>  <COMPOUND_STRING>
CC(C)c1cc2[nH]c(C(=O)O)cc2cc1F

>  <QUAL>
=

>  <RESULT_VALUE>
4.52

$$$$
>  <COMPOUND_STRING>
CC(C)c1cc(F)c2cc(C(=O)O)[nH]c2c1

>  <QUAL>
=

>  <RESULT_VALUE>
5.30

$$$$
>  <COMPOUND_STRING>
C[C@H]1C[C@@]2(O[C@H]3C[C@H]4[C@@H]5CC[C@H]6C[C@H](O)CC[C@]6(C)[C@H]5[C@@H](O)C[C@]4(C)[C@H]3[C@@]2(C)O)OC1(C)C

>  <QUAL>
=

>  <RESULT_VALUE>
4.40

$$$$
>  <COMPOUND_STRING>
CC(C)c1cc(Cl)c2cc(C(=O)O)[nH]c2c1

>  <QUAL>
=

>  <RESULT_VALUE>
5.72

$$$$

----------
biological target: Eukaryotic initiation factor 4A-III (Homo sapiens, UniProt P38919); test: ATP competitive inhibition of MLN51-induced full length recombinant human N-terminal His6/SUMO-tagged eIF4A3 expressed in Escherichia coli BL21(DE3) using varying ATP levels after 30 mins by ADP-Glo luminescence assay
pKi: −log10 of the molar value.

>  <COMPOUND_STRING>
CC(C)c1cc(Cl)c2cc(C(=O)O)[nH]c2c1F

>  <pKi>
6.37

$$$$

----------
target: UniProt P38919; assay: Binding affinity to full length recombinant human N-terminal His6/SUMO-tagged eIF4A3 expressed in Escherichia coli BL21(DE3) administered for 60 to 120 secs by surface plasmon resonance biosensing assay
pKd: −log10 of the molar value.
pKd for assorted compounds

>  <COMPOUND_STRING>
CC(C)c1ccc2cc(C(=O)O)[nH]c2c1

>  <pKd>
5.27

$$$$
>  <COMPOUND_STRING>
CC(C)c1cc(Cl)c2cc(C(=O)O)[nH]c2c1F

>  <pKd>
6.70

$$$$
>  <COMPOUND_STRING>
C[C@H]1C[C@@]2(O[C@H]3C[C@H]4[C@@H]5CC[C@H]6C[C@H](O)CC[C@]6(C)[C@H]5[C@@H](O)C[C@]4(C)[C@H]3[C@@]2(C)O)OC1(C)C

>  <pKd>
4.30

$$$$
